- target_or_test_system: Sodium- and chloride-dependent betaine transporter (Homo sapiens)
- Sequence (P48065 whole entry): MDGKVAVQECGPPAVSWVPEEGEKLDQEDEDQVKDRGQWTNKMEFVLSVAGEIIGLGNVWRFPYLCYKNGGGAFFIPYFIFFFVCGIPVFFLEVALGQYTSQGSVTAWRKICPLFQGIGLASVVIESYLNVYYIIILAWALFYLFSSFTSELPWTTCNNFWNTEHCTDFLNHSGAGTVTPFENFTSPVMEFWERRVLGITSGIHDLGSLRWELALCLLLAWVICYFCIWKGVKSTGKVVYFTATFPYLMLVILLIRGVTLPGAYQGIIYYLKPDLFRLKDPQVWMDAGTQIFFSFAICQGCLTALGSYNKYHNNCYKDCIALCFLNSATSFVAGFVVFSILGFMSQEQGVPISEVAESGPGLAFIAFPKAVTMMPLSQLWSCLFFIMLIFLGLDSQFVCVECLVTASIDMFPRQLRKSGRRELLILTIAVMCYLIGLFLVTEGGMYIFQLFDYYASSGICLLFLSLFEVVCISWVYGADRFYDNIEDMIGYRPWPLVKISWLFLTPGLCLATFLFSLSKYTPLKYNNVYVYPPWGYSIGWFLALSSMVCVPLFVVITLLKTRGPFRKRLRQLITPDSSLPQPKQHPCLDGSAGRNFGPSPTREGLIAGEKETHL
- assay_remarks: Inhibition of human BGT1 expresses in tsA201 cells assessed as reduction in [3H]GABA uptake after 3 mins by scintillation counting method
- Type: cell-based
reported_metric: pIC50
In textbook form, pIC50 equals minus log to base ten of the concentration in mol/L.

1. O=C(NC1CCN(Cc2ccccc2)CC1)c1ccc2ccccc2c1 :: 4.82

// switching to the query compound
Ask: Which pIC50 reading was recorded for the compound O=C(NC1CCN(Cc2ccccc2)CC1)c1ccc2c(c1)OCO2 ?
Reply: 4.38

* * *

- target_or_test_system: GABA transporter 2 (Mus musculus)
- assay_remarks: Inhibition of mouse BGT1 expressed in HEK293 cells assessed as reduction in [3H]GABA uptake after 3 mins by scintillation counting method
- Format: cell-based
- assay_context: read-out: IC50
reported_metric: IC50

1. COC(=O)c1cccc(CN2CCC(NC(=O)c3ccc(Cl)nc3Cl)CC2)c1 :: > 300 µM
2. O=C(NC1CCN(Cc2cccs2)CC1)c1ccc(Cl)nc1Cl :: > 300 µM
3. O=C(NC1CCN(Cc2cccc(Cl)c2)CC1)c1ccc(Cl)cc1Cl :: > 300 µM
4. O=C(NC1CCN(Cc2cccc(O)c2)CC1)c1ccc(Cl)nc1Cl :: > 300 µM
5. O=C(NC1CCN(Cc2ccccc2)CC1)c1cnccc1Cl :: 39 µM

Note: attention shifts to another entry.
Ask: Report IC50 for O=C(OC1CCN(Cc2ccccc2)CC1)c1ccccc1 please.
Reply: 106 µM

* * *

- target_or_test_system: GABA transporter 2 (Mus musculus, UniProt P31651)
- Sequence (P31651 whole entry): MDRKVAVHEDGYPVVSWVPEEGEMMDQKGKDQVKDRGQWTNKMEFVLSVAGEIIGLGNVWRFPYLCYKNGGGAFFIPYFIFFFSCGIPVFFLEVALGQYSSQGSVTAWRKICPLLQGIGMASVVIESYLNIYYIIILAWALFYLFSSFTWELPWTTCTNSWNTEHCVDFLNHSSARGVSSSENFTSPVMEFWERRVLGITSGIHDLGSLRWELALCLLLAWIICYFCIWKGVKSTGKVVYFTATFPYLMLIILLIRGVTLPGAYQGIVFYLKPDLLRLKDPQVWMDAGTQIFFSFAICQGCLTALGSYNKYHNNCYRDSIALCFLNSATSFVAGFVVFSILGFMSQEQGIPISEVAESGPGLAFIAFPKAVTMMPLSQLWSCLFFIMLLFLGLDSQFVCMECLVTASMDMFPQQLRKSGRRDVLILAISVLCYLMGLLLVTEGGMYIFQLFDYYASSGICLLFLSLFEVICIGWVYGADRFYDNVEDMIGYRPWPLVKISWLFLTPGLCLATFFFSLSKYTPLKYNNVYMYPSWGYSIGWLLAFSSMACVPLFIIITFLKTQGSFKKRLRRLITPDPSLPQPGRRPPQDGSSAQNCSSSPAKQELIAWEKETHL
- assay_remarks: Inhibition of mouse BGT1 expressed in HEK293 cells assessed as reduction in [3H]GABA uptake after 3 mins by scintillation counting method
- Assay type: cell-based
reported_metric: pIC50
Field pIC50 (float): negative decimal logarithm of the concentration in molar.

Ask: Return reported pIC50; argument: CCOc1cccc(CN2CCC(NC(=O)c3ccc(Cl)nc3Cl)CC2)c1
Reply: 3.95
